B1: TRIM29 (parent)
chain: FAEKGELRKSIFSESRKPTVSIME

variants of: B1; assay: protein stability index of a GFP-peptide fusion (GPS, HEK-293T) (PSI 1-6); higher = more stable; settings: c terminus: a fixed tail appended;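 note: lentivirally expressed fusions sorted by FACS into six bins by GFP to DsRed ratio, PSI derived from sequencing read proportions per bin multiplied by bin number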
Each record here notes measured protein stability index.
quantity: protein stability index

[[record]]
mutations = "K17W"
reported_value = 2.22

[[record]]
mutations = "S15G"
reported_value = 1.8

[[record]]
mutations = "E6Q"
reported_value = 1.45

[[record]]
mutations = "G5E"
reported_value = 1.69

[[record]]
mutations = "E14F"
reported_value = 1.85

[[record]]
mutations = "S21P"
reported_value = 1.47

[[record]]
mutations = "F12S"
reported_value = 3.69

[[record]]
mutations = "K9T"
reported_value = 1.93

[[record]]
mutations = "E3W"
reported_value = 1.83

[[record]]
mutations = "E24D"
reported_value = 2.41

[[record]]
mutations = "S10R"
reported_value = 1.35

[[record]]
mutations = "F1K"
reported_value = 4.27

[[record]]
mutations = "F1Y"
reported_value = 1.45

[[record]]
mutations = "R8Y"
reported_value = 2.54

[[record]]
mutations = "S21K"
reported_value = 2.7

[[record]]
mutations = "S10W"
reported_value = 2.35

[[record]]
mutations = "E3S"
reported_value = 3.11

[[record]]
mutations = "K4N"
reported_value = 2.53

[[record]]
mutations = "K17Y"
reported_value = 2.23

[[record]]
mutations = "R8F"
reported_value = 2.64

[[record]]
mutations = "L7G"
reported_value = 1.46

[[record]]
mutations = "R16K"
reported_value = 2.35

[[record]]
mutations = "L7Q"
reported_value = 2.31

[[record]]
mutations = "S10F"
reported_value = 2.32

[[record]]
mutations = "G5D"
reported_value = 1.8

[[record]]
mutations = "M23G"
reported_value = 1.57

[[record]]
mutations = "E14P"
reported_value = 3.31

[[record]]
mutations = "G5P"
reported_value = 2.46

[[record]]
mutations = "K9H"
reported_value = 2.16

[[record]]
mutations = "R8D"
reported_value = 2.55

[[record]]
mutations = "R8S"
reported_value = 1.47

[[record]]
mutations = "S10V"
reported_value = 2.46

[[record]]
mutations = "S21F"
reported_value = 2.61

[[record]]
mutations = "P18W"
reported_value = 2.83

[[record]]
mutations = "K4R"
reported_value = 2.08

[[record]]
mutations = "R16T"
reported_value = 1.6

[[record]]
mutations = "K17M"
reported_value = 1.33

[[record]]
mutations = "K4A"
reported_value = 1.87

[[record]]
mutations = "L7A"
reported_value = 2.25

[[record]]
mutations = "F1P"
reported_value = 3.9

[[record]]
mutations = "A2R"
reported_value = 3.42

[[record]]
mutations = "P18D"
reported_value = 2.32

[[record]]
mutations = "E6D"
reported_value = 1.44

[[record]]
mutations = "E3M"
reported_value = 2.09

[[record]]
mutations = "S13L"
reported_value = 1.84

[[record]]
mutations = "E6R"
reported_value = 1.64

[[record]]
mutations = "K17V"
reported_value = 2.46

[[record]]
mutations = "K9G"
reported_value = 2.3

[[record]]
mutations = "T19R"
reported_value = 2.02

[[record]]
mutations = "S10T"
reported_value = 1.82

[[record]]
mutations = "F1N"
reported_value = 4.34

[[record]]
mutations = "S15W"
reported_value = 2.29

[[record]]
mutations = "K17N"
reported_value = 1.39

[[record]]
mutations = "T19P"
reported_value = 2.39

[[record]]
mutations = "V20A"
reported_value = 1.42

[[record]]
mutations = "K17L"
reported_value = 2.86

[[record]]
mutations = "V20N"
reported_value = 1.27

[[record]]
mutations = "E3D"
reported_value = 1.9

[[record]]
mutations = "K17T"
reported_value = 2.12

[[record]]
mutations = "R16E"
reported_value = 1.3

[[record]]
mutations = "V20C"
reported_value = 2.13

[[record]]
mutations = "R8M"
reported_value = 1.81

[[record]]
mutations = "I11C"
reported_value = 1.64

[[record]]
mutations = "S10G"
reported_value = 2

[[record]]
mutations = "S15A"
reported_value = 1.75

[[record]]
mutations = "I11S"
reported_value = 3.09

[[record]]
mutations = "R16V"
reported_value = 2.18

[[record]]
mutations = "V20Y"
reported_value = 1.67

[[record]]
mutations = "P18G"
reported_value = 2.59

[[record]]
mutations = "S10Y"
reported_value = 2.04

[[record]]
mutations = "T19Q"
reported_value = 2.26

[[record]]
mutations = "S21Q"
reported_value = 3.18

[[record]]
mutations = "L7S"
reported_value = 2.22

[[record]]
mutations = "I22Q"
reported_value = 1.55

[[record]]
mutations = "E24C"
reported_value = 2.07

[[record]]
mutations = "E6H"
reported_value = 2.38

[[record]]
mutations = "K4E"
reported_value = 2.33

[[record]]
mutations = "P18C"
reported_value = 2.21

[[record]]
mutations = "E6T"
reported_value = 1.56

[[record]]
mutations = "K4H"
reported_value = 1.75

[[record]]
mutations = "S13T"
reported_value = 1.87

[[record]]
mutations = "S21D"
reported_value = 1.65

[[record]]
mutations = "E3C"
reported_value = 1.92

[[record]]
mutations = "E6W"
reported_value = 2.02

[[record]]
mutations = "K4M"
reported_value = 1.39

[[record]]
mutations = "E14W"
reported_value = 1.76

[[record]]
mutations = "E14I"
reported_value = 2.32

[[record]]
mutations = "F12P"
reported_value = 3.96

[[record]]
mutations = "F12C"
reported_value = 2.96

[[record]]
mutations = "E3N"
reported_value = 2.29

[[record]]
mutations = "T19C"
reported_value = 2.39


Where do these numbers come from? They come from the supplement of paper PMC10567573.
